Hello, the source for this data is PubChem BioAssay, in case you need it.

- assayTarget: Nuclear receptor coactivator 3 (Homo sapiens) (UniProt Q9Y6Q9)
- Sequence (Q9Y6Q9 whole entry, looked up): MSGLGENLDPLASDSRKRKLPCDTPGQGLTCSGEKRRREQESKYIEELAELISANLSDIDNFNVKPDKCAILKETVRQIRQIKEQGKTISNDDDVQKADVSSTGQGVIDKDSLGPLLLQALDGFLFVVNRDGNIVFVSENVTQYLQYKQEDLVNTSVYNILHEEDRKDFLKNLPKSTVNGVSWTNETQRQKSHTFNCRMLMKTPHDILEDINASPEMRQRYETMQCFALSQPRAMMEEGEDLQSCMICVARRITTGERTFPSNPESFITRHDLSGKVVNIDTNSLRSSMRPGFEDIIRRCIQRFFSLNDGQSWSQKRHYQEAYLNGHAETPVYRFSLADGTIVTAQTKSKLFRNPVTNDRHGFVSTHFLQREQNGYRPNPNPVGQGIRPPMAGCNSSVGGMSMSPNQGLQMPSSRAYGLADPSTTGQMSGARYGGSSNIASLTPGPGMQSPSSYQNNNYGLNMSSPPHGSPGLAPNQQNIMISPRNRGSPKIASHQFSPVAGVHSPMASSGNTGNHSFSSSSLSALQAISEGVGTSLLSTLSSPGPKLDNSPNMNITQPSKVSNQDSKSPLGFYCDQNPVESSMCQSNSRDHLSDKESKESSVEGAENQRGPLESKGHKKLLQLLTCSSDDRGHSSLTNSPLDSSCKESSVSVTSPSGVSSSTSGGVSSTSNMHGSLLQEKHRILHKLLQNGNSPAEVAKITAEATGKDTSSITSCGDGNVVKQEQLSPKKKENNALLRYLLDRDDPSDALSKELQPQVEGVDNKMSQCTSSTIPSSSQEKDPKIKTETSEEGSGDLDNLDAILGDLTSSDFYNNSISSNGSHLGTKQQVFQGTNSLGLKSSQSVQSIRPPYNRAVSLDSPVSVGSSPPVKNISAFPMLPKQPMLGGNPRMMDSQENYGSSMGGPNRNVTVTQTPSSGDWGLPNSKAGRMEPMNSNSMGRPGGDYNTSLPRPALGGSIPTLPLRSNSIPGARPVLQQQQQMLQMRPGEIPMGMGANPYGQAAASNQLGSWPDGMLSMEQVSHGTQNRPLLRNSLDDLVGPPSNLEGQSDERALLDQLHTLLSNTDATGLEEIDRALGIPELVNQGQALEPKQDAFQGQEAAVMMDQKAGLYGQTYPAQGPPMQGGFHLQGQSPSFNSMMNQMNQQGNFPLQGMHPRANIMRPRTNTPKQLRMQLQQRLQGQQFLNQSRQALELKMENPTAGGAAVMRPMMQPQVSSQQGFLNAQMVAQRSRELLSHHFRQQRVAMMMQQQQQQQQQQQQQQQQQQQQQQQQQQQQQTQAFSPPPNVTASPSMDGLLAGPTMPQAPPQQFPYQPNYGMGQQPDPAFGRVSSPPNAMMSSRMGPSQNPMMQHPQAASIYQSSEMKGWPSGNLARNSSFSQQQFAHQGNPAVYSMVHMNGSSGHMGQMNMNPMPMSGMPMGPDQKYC
- protocolDetails: SRC3 coactivator transcriptional activity inhibitors, confirmation, cell-based, luminescence, quadruplicate (AID 588792)
- protocolConditions: HEK293 GAL4-SRC3 luciferase reporter, at 3.6 µM, active compounds read high
Our labelling divides records by inhibition into ranges: band A = under 20%, band B = from 20% up to 50%, band C = 50% and over

>  <compound>
Clc1cncc(Cl)c1N/N=C/c1ccncc1

>  <class>
band B

$$$$
>  <compound>
COc1cccc(-c2c(C(=O)N/N=C/c3ccncc3)nnn2-c2nonc2N)c1

>  <class>
band A

$$$$
>  <compound>
NC1=C(Br)C(=O)c2ncccc2C1=O

>  <class>
band C

$$$$
>  <compound>
O=C(N/N=C/c1ccc(O)cc1O)c1ccc(CN2C(=O)c3cccc4cccc2c34)cc1

>  <class>
band C

$$$$
>  <compound>
OCCCNc1ncnc2scc(-c3ccc(Cl)cc3)c12

>  <class>
band C

$$$$
>  <compound>
CCCn1nc(C(=O)NCC2COc3ccccc3O2)c2ccccc2c1=O (stereo unspecified)

>  <class>
band A

$$$$
>  <compound>
COc1ccc(Nc2ncnc3ccc(Br)cc23)cc1OC

>  <class>
band C

$$$$
>  <compound>
CCCCN1C=CC(=C2C(=O)c3ccccc3C2=O)C=C1

>  <class>
band B

$$$$
>  <compound>
CCNc1nc(NC(C)(C)C)nc(SC(C(C)=O)C(C)=O)n1

>  <class>
band B

$$$$
>  <compound>
COC(=O)c1ccccc1-c1c2ccc(=N)cc-2oc2cc(N)ccc12

>  <class>
band B

$$$$
>  <compound>
Brc1ccc2ncc3ccccc3c2c1

>  <class>
band B

$$$$
>  <compound>
CCOC(=O)CCCCC1C(CCCC(=O)OCC)C=NN1C (stereo unspecified)

>  <class>
band A

$$$$
>  <compound>
Cc1ccc(S(=O)(=O)N2C[C@@H]3CCCC[C@@H]3[C@@H](C)[C@H]2c2cn(Cc3ccccc3)c3ncccc23)cc1

>  <class>
band B

$$$$
>  <compound>
O=C(N/N=C/c1cc(Br)ccc1O)C(c1ccncc1)N1CCOCC1 (stereo unspecified)

>  <class>
band A

$$$$
>  <compound>
O=C(N/N=C/c1c(O)ccc2ccccc12)c1ccc(CO)nc1

>  <class>
band B

$$$$
>  <compound>
O=C(c1ccc(F)cc1)C(CN1CCOCC1)c1ccccc1 (stereo unspecified)

>  <class>
band B

$$$$
>  <compound>
Brc1cccc(CSc2nnc(-c3ccncc3)o2)c1

>  <class>
band B

$$$$
>  <compound>
COc1ccc(C(C)=O)cc1CSc1nnc(Nc2ccccc2)s1

>  <class>
band A

$$$$
>  <compound>
O=C1N(c2ccccc2)C[C@@H]2C[C@@H](c3cc4ccccc4o3)N3CCC[C@@]123

>  <class>
band C

$$$$
>  <compound>
Cc1ccc(-c2c[n+]3c(n2-c2ccccc2)SCC3)cc1

>  <class>
band A

$$$$
>  <compound>
CCCc1nn(C)c(C(=O)Nc2cccc(Cl)c2)c1Cl

>  <class>
band A

$$$$
>  <compound>
COCCn1c(C)cc(C(=O)COC(=O)c2ccccc2Br)c1C

>  <class>
band C

$$$$
>  <compound>
O=C(/C=C/c1cccs1)NC(=S)NNC(=O)c1ccccc1O

>  <class>
band C

$$$$
>  <compound>
Cc1ccc(S(=O)(=O)NCCC(=O)Nc2ccncc2)cc1C

>  <class>
band A

$$$$
>  <compound>
O=C(c1ccccc1)c1nn(-c2ccc(Cl)cc2)c(=O)cc1C(F)(F)F

>  <class>
band C

$$$$
>  <compound>
CC1(C)CCSC(/C=C/c2ccccc2)=N1

>  <class>
band C

$$$$
>  <compound>
CC(=O)Nc1ccc(S(=O)(=O)Oc2ccccc2N2CCCCC2)cc1

>  <class>
band A

$$$$
>  <compound>
CNc1ccc2ncc(-c3cccc(C(=O)N(C)C)c3)n2n1

>  <class>
band C

$$$$
>  <compound>
Cc1ccc2occ(/C=N/NC(=O)c3ccccc3Br)c(=O)c2c1

>  <class>
band B

$$$$
>  <compound>
COc1ccc(NC(=O)c2oc3ccc(S(=O)(=O)N4CCC5(CC4)OCCO5)cc3c2C)cc1

>  <class>
band A

$$$$
>  <compound>
CCCCCn1c2c(c(=N)c3ccccc31)CCC2

>  <class>
band B

$$$$
>  <compound>
COc1ccc(N2CC(C(=O)N/N=C/c3ccccc3)CC2=O)cc1 (stereo unspecified)

>  <class>
band A

$$$$
>  <compound>
COc1cccc(/C=N/Nc2ccc(C(=O)O)cc2)c1O

>  <class>
band C

$$$$
>  <compound>
CCN1CCS/C1=C\C=C\C1=[N+](CC)CCS1

>  <class>
band B

$$$$
>  <compound>
COc1ccc(CC2C(=O)NC(C)C(=O)N(C)C3Cc4ccc(cc4)Oc4cc(ccc4O)CC(C(=O)NC(C)C(=O)NC(C)C(=O)N2C)N(C)C3=O)cc1 (stereo unspecified)

>  <class>
band C

$$$$
>  <compound>
CC(=O)Nc1ccc(S(=O)(=O)NCCSCc2ccccc2Cl)cc1

>  <class>
band A

$$$$
>  <compound>
COc1ccc(-c2nc(-c3ccccn3)no2)cc1

>  <class>
band C

$$$$
>  <compound>
CN1CCCC(n2nc(Cc3ccc(Cl)cc3)c3ccccc3c2=O)CC1 (stereo unspecified)

>  <class>
band A

$$$$
>  <compound>
CNC(=O)c1ccc(-c2sc3nc(N4CCOCC4)c4c(c3c2N)CC(C)(C)OC4)o1

>  <class>
band A

$$$$
>  <compound>
N#Cc1c(NC(=O)CSc2ncn[nH]2)sc2c1CCCCC2

>  <class>
band C

$$$$
>  <compound>
CCOc1ccc(N2C(=O)/C(=C/c3cc(OC)c(OC)c(OC)c3)N(CC(=O)OC)C2=S)cc1

>  <class>
band A

$$$$
>  <compound>
CCC(=O)Oc1c(C(=O)CC)cc2c(C)cc(=O)oc2c1C

>  <class>
band A

$$$$
>  <compound>
COc1ccc(-c2[nH]ncc2-c2ccc3c(c2)OCCO3)c(O)c1

>  <class>
band C

$$$$
>  <compound>
C/C(CC(C)(C)C1CCCCC1)=N\NC(N)=S

>  <class>
band C

$$$$
